target: Sodium- and chloride-dependent GABA transporter 1 (Mus musculus, UniProt P31648); experiment: Inhibition of mouse GAT1-mediated [3H]GABA uptake expressed in human HEK cells; format: cell-based, HEK293
Measured Property: pIC50
Conceptually, pIC50 converts a concentration in mol/L into minus its log10.

Request: Which pIC50 is reported for this compound? COc1ccccc1C1(O)CCN(CCCn2c3ccccc3c3ccccc32)CC1
Response: 4.99

====

tested on: betaine/GABA transporter BGT-1 (Slc6a12, Mus musculus); experiment: Residual mouse GAT2-mediated [3H]GABA uptake expressed in human HEK cells at 1 mM; conditions: HEK293
Measured Property: residual activity (%)
Give just the number in %; leave the unit off.

>>> print(df.to_string())
      compound_structure_string  result_units  numeric_result
0                  NCc1nnn[nH]1             %            59.4
1  CC(C)(C)CC(C)(C)n1nnnc1CNCCN             %             142
2         C1CN(Cc2nnn[nH]2)CCN1             %            75.4
3         C1CN(Cc2nnn[nH]2)CCO1             %              88

Now for another entry.
Request: Which residual activity is reported for this compound? NCCNCc1nnn[nH]1
Response: 80

====

Let's look at some compounds and their measured residual activity.
test system: betaine/GABA transporter BGT-1 (Slc6a12, Mus musculus); experiment: Residual mouse GAT2-mediated [3H]GABA uptake expressed in human HEK cells at 100 uM; conditions: HEK293
Give just the number in %; leave the unit off.

Example results:
                  compound_structure_string  result_units  numeric_result
0         c1ccc(C(NCc2nnn[nH]2)c2ccccc2)cc1             %            94.2
1  c1ccc(Cn2nnnc2CNCCC(c2ccccc2)c2ccccc2)cc1             %            61.6
2  c1ccc(Cn2nnnc2CNCC(c2ccccc2)c2ccccc2)cc1             %            67.1
3     C(CCNCc1nnn[nH]1)=C(c1ccccc1)c1ccccc1             %            76.9
4             CCCCNCc1nnnn1C(C)(C)CC(C)(C)C             %            60.3

Request: Fill in the recorded residual activity for this compound, with betaine/GABA transporter BGT-1 (Slc6a12, Mus musculus) as test system: CC(C)(C)CC(C)(C)n1nnnc1CNCC(c1ccccc1)c1ccccc1
Response: 63.5

Request: Fill in the recorded residual activity for this compound, with betaine/GABA transporter BGT-1 (Slc6a12, Mus musculus) as test system: c1ccc(Cn2nnnc2CNC(c2ccccc2)c2ccccc2)cc1
Response: 84.5

Request: Fill in the recorded residual activity for this compound, with betaine/GABA transporter BGT-1 (Slc6a12, Mus musculus) as test system: CCCCNCc1nnn[nH]1
Response: 65.3

Request: Fill in the recorded residual activity for this compound, with betaine/GABA transporter BGT-1 (Slc6a12, Mus musculus) as test system: c1ccc2c(c1)c1ccccc1n2CCCNCc1nnn[nH]1
Response: 81.6

Request: Fill in the recorded residual activity for this compound, with betaine/GABA transporter BGT-1 (Slc6a12, Mus musculus) as test system: C(CNCc1nnn[nH]1)=C(c1ccccc1)c1ccccc1
Response: 82

Request: Fill in the recorded residual activity for this compound, with betaine/GABA transporter BGT-1 (Slc6a12, Mus musculus) as test system: c1ccc(C(CCNCc2nnn[nH]2)c2ccccc2)cc1
Response: 53.2
